Test system: CSNK1G3;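 further: KINOMEscan kinase panel screen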
Details: concentration: 1 μM,replicates: in singlicate; n = 1
Measured Quantity: %Inh

{"columns": ["Smiles String", "Result"],
 "data": [
  ["Cn1ccc2ncnc(Oc3ccc(NC(=O)Nc4cnn(C(C)(C)C)c4)c(Cl)c3)c21", "0%"],
  ["Cc1cccc2c(-c3ccncc3)c(-c3ccc(F)cc3)nn12.Cl", "26%"],
  ["CCn1c(-c2nonc2N)nc2cncc(CNC3CCNCC3)c21.Cl", "0%"],
  ["CNC(=O)c1ccccc1Nc1nc(Nc2cccc(CS(C)(=O)=O)c2)ncc1C.O=CO", "26%"],
  ["CN1CCN(CCCNc2nccc(-c3c(-c4ccc(F)cc4)nn4cc(C(N)=O)ccc34)n2)CC1", "20%"],
  ["CC(=O)c1c(-c2ccncc2)[nH]c(-c2ccncc2)c1C", "98.6%"],
  ["CCn1c(-c2nonc2N)nc2cncc(Br)c21", "7%"],
  ["O=C1NCCc2[nH]c(-c3ccncc3)cc21", "83%"],
  ["C[C@@H]1CNc2c(sc3ccc4nc(-c5ccc(O)cc5)ccc4c23)C(=O)N1", "32%"],
  ["O=C(NOCC1CC1)c1cc(Br)c(F)c(F)c1Nc1ccc(I)cc1Cl", "9%"],
  ["Cl.Nc1n[nH]c2cc(-c3ccccn3)ccc12", "31%"],
  ["Cn1cc(-c2cccc3c(N)c(C(N)=O)nnc23)cn1", "10%"],
  ["CSc1nccc(-c2c(-c3ccc(F)cc3)ncn2CCCN2CCOCC2)n1.Cl", "0%"],
  ["CN(c1ccccc1CNc1nc(Nc2ccc3c(c2)CC(=O)N3)ncc1C(F)(F)F)S(C)(=O)=O", "13%"],
  ["FC(F)(F)c1cc(Br)cc(Nc2nccc(-c3cnn4ncccc34)n2)c1", "0%"],
  ["Cl.c1ccc(Oc2ccc(Nc3ccnc4cc(-c5ccc(CN6CCNCC6)o5)ccc34)cc2)nc1", "32%"],
  ["CS(=O)(=O)Nc1ccc(-c2ccnc3[nH]ccc23)cc1", "17%"],
  ["O=C(Nc1ccc(Oc2ccc3nc(NC(=O)C4CC4)cn3n2)c(F)c1)c1cccn(-c2ccccc2)c1=O", "30%"],
  ["CC(C)c1nc(-c2cccc(NS(=O)(=O)c3ccccc3)c2)c(-c2ccnc(Nc3ccc4c(c3)CN(C)CC4)n2)s1", "28%"]
]}
